target: NLRP3 inflammasome (Homo sapiens, UniProt Q96P20); experiment: NLRP3 inflammasome activation assay in PBMCs (LPS priming, nigericin), IL-1β by ELISA; format: cell-based; set-up: Human peripheral blood mononuclear cells (PBMCs); host or cells: primary human PBMCs from healthy donors; details: LPS, nigericin, read-out: PBMC IL-1β IC50
Sequence (Q96P20 whole entry): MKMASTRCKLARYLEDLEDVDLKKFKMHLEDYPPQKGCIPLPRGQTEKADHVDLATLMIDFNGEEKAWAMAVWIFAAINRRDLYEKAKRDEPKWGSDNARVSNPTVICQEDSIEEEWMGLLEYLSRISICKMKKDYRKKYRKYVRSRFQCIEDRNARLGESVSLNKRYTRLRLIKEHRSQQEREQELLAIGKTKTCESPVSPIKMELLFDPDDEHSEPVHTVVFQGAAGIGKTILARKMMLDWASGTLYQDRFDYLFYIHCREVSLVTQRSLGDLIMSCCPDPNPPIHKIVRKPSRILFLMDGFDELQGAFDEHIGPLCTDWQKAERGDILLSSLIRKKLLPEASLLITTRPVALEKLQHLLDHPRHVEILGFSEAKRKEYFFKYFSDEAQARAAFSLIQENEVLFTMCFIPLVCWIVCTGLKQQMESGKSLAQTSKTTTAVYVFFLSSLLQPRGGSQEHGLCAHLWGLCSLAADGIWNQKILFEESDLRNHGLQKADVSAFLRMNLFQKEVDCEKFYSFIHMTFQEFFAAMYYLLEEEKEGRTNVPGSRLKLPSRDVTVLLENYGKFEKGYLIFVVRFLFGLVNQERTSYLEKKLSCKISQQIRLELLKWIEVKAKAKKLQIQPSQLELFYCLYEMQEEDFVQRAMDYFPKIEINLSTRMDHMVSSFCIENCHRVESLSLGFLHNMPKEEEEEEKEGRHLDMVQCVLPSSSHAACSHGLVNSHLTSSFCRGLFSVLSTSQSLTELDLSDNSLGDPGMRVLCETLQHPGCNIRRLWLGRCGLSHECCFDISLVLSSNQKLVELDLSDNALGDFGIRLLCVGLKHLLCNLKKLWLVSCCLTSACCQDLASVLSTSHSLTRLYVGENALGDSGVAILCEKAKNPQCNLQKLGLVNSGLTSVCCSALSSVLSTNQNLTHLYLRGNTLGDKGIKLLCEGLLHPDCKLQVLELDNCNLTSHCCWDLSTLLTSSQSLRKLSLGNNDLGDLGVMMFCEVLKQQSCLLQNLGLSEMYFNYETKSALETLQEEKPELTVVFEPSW
pIC50: −log10 of the molar value.
Measured property: pIC50

• CC1(C)COc2c(S(=O)(=O)NC(=O)Nc3c4c(cc5c3CCC5)CCC4)cnn2C1 [drawing 513] = > 7.00
• O=C(Nc1c2c(cc3c1CCC3)CCC2)NS(=O)(=O)c1cnn2c1OCC(N1CCC1)C2 (centres unmarked) = > 7.00
• CO[C@H]1COc2c(S(=O)(=O)NC(=O)Nc3c(C(C)C)cc(Cl)cc3C(C)C)cnn2C1 = 6.00 to 7.00
• Cc1c2c(c(NC(=O)NS(=O)(=O)c3cnn4c3OCCC4)c3c1CCC3)CCC2 = 6.00 to 7.00
• COC1(C)COc2c(S(=O)(=O)NC(=O)Nc3c4c(cc5c3CCC5)CCC4)cnn2C1 (centres unmarked) = 6.00 to 7.00
• O=C(Nc1c2c(cc3c1CCC3)CCC2)NS(=O)(=O)c1cnn2c1NCCC2 = > 7.00
• O=C(Nc1c2c(c(F)c3c1CCC3)CCC2)NS(=O)(=O)c1cnn2c1OCCC2 = > 7.00
• CCO[C@@H]1COc2c(S(=O)(=O)NC(=O)Nc3c4c(cc5c3CCC5)CCC4)cnn2C1 = 6.00 to 7.00
• CC[C@H]1COc2c(S(=O)(=O)NC(=O)Nc3c4c(cc5c3CCC5)CCC4)cnn2C1 = > 7.00
• CN(CC1COc2c(S(=O)(=O)NC(=O)Nc3c4c(cc5c3CCC5)CCC4)cnn2C1)C(=O)OC(C)(C)C (centres unmarked) = 6.00 to 7.00
• O=C(Nc1c2c(cc3c1CCC3)CCC2)NS(=O)(=O)c1cnn2c1OCC1(CC1)C2 [drawing 528] = > 7.00
• C[C@H]1COc2c(S(=O)(=O)NC(=O)Nc3c4c(cc5c3CCC5)CCC4)cnn2C1 = > 7.00
• O=C(Nc1c2c(cc3c1CCC3)CCC2)NS(=O)(=O)c1cnn2c1OCC(O)C2 (centres unmarked) [drawing 514] = > 7.00
• CO[C@@H]1COc2c(S(=O)(=O)NC(=O)Nc3c4c(cc5c3CCC5)CCC4)cnn2C1 = 6.00 to 7.00
• CCNC1COc2c(S(=O)(=O)NC(=O)Nc3c4c(cc5c3CCC5)CCC4)cnn2C1 (centres unmarked) = > 7.00
• O=C(Nc1c2c(cc3c1CCC3)CCC2)NS(=O)(=O)c1cnn2c1OCC1(COC1)C2 [drawing 510] = 6.00 to 7.00
• C[C@@H]1COc2c(S(=O)(=O)NC(=O)Nc3c4c(cc5c3CCC5)CCC4)cnn2C1 = > 7.00

* * *

Entries and their Cmax values follow.
test: Pharmacokinetics in mice; assay type: in vivo, CD-1 Mice; settings: mouse, plasma; Male CD-1 Mice, PO, 10 mg/kg, 0.5% MC
Measured property: Cmax

• O=C(Nc1c2c(cc3c1CCC3)CCC2)NS(=O)(=O)c1cnn2c1OCC1(CC1)C2 = 63000 ng/mL
• CN(C)[C@H]1COc2c(S(=O)(=O)NC(=O)Nc3c4c(cc5c3CCC5)CCC4)cnn2C1 = 7530 ng/mL
• CC1(C)COc2c(S(=O)(=O)NC(=O)Nc3c4c(cc5c3CCC5)CCC4)cnn2C1 = 22700 ng/mL

* * *

experiment: Pharmacokinetics in mice; assay type: in vivo, CD-1 Mice; settings: mouse, plasma; Male CD-1 Mice, PO, 10 mg/kg, 0.5% MC; read-out: AUC 0-24 hr
Measured property: AUC(0-t) (µg·h/mL)

* CC1(C)COc2c(S(=O)(=O)NC(=O)Nc3c4c(cc5c3CCC5)CCC4)cnn2C1 [A] | 186
* CN(C)[C@H]1COc2c(S(=O)(=O)NC(=O)Nc3c4c(cc5c3CCC5)CCC4)cnn2C1 [C] | 9.95
* O=C(Nc1c2c(cc3c1CCC3)CCC2)NS(=O)(=O)c1cnn2c1OCC1(CC1)C2 [B] | 256

* * *

test: Pharmacokinetics in mice; type: in vivo, CD-1 Mice; conditions: mouse, plasma; Female CD-1 Mice, PO, 10 mg/kg, 0.5% MC; 0.25% Tween 80
Entries and their Cmax values follow.
Measured property: Cmax (ng/mL)

• COC1CN([C@H]2COc3c(S(=O)(=O)NC(=O)Nc4c5c(cc6c4CCC6)CCC5)cnn3C2)C1 = 8620
• CN[C@H]1COc2c(S(=O)(=O)NC(=O)Nc3c4c(cc5c3CCC5)CCC4)cnn2C1 = 13700

* * *

Entries and their pIC50 values follow.
biological target: NLRP3 inflammasome (Homo sapiens); test: NLRP3 inflammasome activation assay in Kupffer cells (LPS priming, nigericin), IL-1β/IL-18 by ELISA; format: cell-based; conditions: KCs; LPS, nigericin; read-out: KC IL-1β IC50
pIC50: −log10 of the molar value.
Measured property: pIC50

• CC1COc2c(S(=O)(=O)NC(=O)Nc3c4c(cc5c3CCC5)CCC4)cnn2C1 (stereo not drawn) = > 7.00
• CC1(C)COc2c(S(=O)(=O)NC(=O)Nc3c4c(cc5c3CCC5)CCC4)cnn2C1 [drawing 513] = > 7.00
• O=C(Nc1c2c(cc3c1CCC3)CCC2)NS(=O)(=O)c1cnn2c1NCCC2 = > 7.00

* * *

biological target: NLRP3 inflammasome (Homo sapiens); assay: NLRP3 inflammasome activation assay in PBMCs (LPS priming, nigericin), IL-1β by ELISA; type: cell-based; set-up: Human peripheral blood mononuclear cells (PBMCs); host or cells: primary human PBMCs from healthy donors; details: LPS, nigericin, read-out: PBMC IL-1β IC50
Measured property: IC50

- O=C(Nc1c2c(cc3c1CCC3)CCC2)NS(=O)(=O)c1cnn2c1OC[C@H](O)C2: < 100 nM
- CC(C)OC1COc2c(S(=O)(=O)NC(=O)Nc3c4c(cc5c3CCC5)CCC4)cnn2C1 (stereo not drawn): 100 to 1000 nM
- CC(C)(C)OC(=O)NCC1COc2c(S(=O)(=O)NC(=O)Nc3c4c(cc5c3CCC5)CCC4)cnn2C1 (stereo not drawn): < 100 nM
- COC1COc2c(S(=O)(=O)NC(=O)Nc3c4c(cc5c3CCC5)CCC4)cnn2C1 (stereo not drawn) [drawing 518]: < 100 nM
- CC1CCOc2c(S(=O)(=O)NC(=O)Nc3c4c(cc5c3CCC5)CCC4)cnn21 (stereo not drawn) [drawing 516]: < 100 nM
- O=C(Nc1c2c(cc3c1CCC3)CCC2)NS(=O)(=O)c1cnn2c1OCC(N1CCCC1)C2 (stereo not drawn): < 100 nM
- O=C(Nc1cc(C2CC2)cc(C2CC2)c1)NS(=O)(=O)c1cnn2c1OCCC2: 100 to 1000 nM
- CN1CCn2nc(S(=O)(=O)NC(=O)Nc3c4c(cc5c3CCC5)CCC4)cc2C1: 1000 to 10000 nM
- O=C(Nc1c2c(cc3c1CCC3)CCC2)NS(=O)(=O)c1cnn2c1C(F)CCC2 (stereo not drawn): 100 to 1000 nM

* * *

assay: Pharmacokinetics in mice; format: in vivo, CD-1 Mice; settings: mouse, plasma; Male CD-1 Mice, IV, 1 mg/kg; read-out: Vz
Entries and their Vd values follow.
Measured property: Vd (L/kg)

- CN(C)[C@H]1COc2c(S(=O)(=O)NC(=O)Nc3c4c(cc5c3CCC5)CCC4)cnn2C1: 0.64
- O=C(Nc1c2c(cc3c1CCC3)CCC2)NS(=O)(=O)c1cnn2c1OCC1(CC1)C2: 0.13
- CC1(C)COc2c(S(=O)(=O)NC(=O)Nc3c4c(cc5c3CCC5)CCC4)cnn2C1: 0.137

* * *

system: LPS and nigericin stimulated cells; experiment: cells; type: cell-based; conditions: Homo sapiens, read-out: CTG protective IC50
Measured property: IC50

• O=C(Nc1c2c(cc3c1CCC3)CCC2)NS(=O)(=O)c1cnn2c1OCCC2 = < 100 nM
• CN(C)[C@@H]1COc2c(S(=O)(=O)NC(=O)Nc3c4c(cc5c3CCC5)CCC4)cnn2C1 = > 10000 nM
• CN[C@H]1COc2c(S(=O)(=O)NC(=O)Nc3c4c(cc5c3CCC5)CCC4)cnn2C1 [drawing 566] = < 100 nM
• CN1CCn2ncc(S(=O)(=O)NC(=O)Nc3c4c(cc5c3CCC5)CCC4)c2C1=O = 1000 to 10000 nM
• CN(C)CC1COc2c(S(=O)(=O)NC(=O)Nc3c4c(cc5c3CCC5)CCC4)cnn2C1 (stereo not drawn) = 1000 to 10000 nM
• COC1CN(C2COc3c(S(=O)(=O)NC(=O)Nc4c5c(cc6c4CCC6)CCC5)cnn3C2)C1 (stereo not drawn) = < 100 nM
• CN(C)C1COc2c(S(=O)(=O)NC(=O)Nc3c4c(cc5c3CCC5)CCC4)cnn2C1 (stereo not drawn) = < 100 nM
• CNC1COc2c(S(=O)(=O)NC(=O)Nc3c4c(cc5c3CCC5)CCC4)cnn2C1 (stereo not drawn) = < 100 nM
• COC1CN([C@H]2COc3c(S(=O)(=O)NC(=O)Nc4c5c(cc6c4CCC6)CCC5)cnn3C2)C1 [drawing 580] = < 100 nM
• CN(C)[C@H]1COc2c(S(=O)(=O)NC(=O)Nc3c4c(cc5c3CCC5)CCC4)cnn2C1 [drawing 541] = < 100 nM
• CN[C@@H]1COc2c(S(=O)(=O)NC(=O)Nc3c4c(cc5c3CCC5)CCC4)cnn2C1 = 100 to 1000 nM
• COC1CN([C@@H]2COc3c(S(=O)(=O)NC(=O)Nc4c5c(cc6c4CCC6)CCC5)cnn3C2)C1 = < 100 nM
